TARGET OF ASSAY: UniProtKB P10721
Sequence (P10721 whole entry, looked up): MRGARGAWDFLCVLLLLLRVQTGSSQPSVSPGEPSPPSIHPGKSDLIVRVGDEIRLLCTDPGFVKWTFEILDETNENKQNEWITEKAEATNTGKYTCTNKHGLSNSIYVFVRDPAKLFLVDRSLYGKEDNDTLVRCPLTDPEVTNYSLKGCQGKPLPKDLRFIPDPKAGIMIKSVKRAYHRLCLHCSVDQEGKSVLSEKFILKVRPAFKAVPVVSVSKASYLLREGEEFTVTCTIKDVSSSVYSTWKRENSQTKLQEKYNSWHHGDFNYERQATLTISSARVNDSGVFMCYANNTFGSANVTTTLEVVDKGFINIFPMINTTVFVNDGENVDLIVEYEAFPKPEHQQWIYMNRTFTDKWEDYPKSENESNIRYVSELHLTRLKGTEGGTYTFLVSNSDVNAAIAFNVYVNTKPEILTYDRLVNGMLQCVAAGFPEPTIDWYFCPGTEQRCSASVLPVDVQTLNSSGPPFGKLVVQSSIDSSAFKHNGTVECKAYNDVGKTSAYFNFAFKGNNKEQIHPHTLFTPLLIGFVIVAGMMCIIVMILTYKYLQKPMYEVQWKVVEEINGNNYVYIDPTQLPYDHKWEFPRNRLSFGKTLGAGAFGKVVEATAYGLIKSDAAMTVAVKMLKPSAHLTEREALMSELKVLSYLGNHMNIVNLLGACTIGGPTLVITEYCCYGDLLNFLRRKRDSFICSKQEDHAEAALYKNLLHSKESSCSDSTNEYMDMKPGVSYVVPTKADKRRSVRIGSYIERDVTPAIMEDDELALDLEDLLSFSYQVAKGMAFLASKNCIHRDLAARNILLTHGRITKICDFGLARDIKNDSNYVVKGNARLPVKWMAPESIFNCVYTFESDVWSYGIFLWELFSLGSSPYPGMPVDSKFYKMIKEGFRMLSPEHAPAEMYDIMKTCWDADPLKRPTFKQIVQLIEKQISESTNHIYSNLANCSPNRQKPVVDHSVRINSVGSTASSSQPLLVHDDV
ASSAY: radiometric filter-binding kinase assay, Kinase HotSpot
CONDITION LABEL: compound 0.5 µM; ATP 10 µM
Hi! Just check whether residual activity is below 90%. Below gives TRUE, equal or above gives FALSE.

{"columns": ["MOLECULE", "ANSWER LABEL"],
 "data": [
  ["COc1cc2ncc(-c3ccccc3)nc2cc1OC", "TRUE"],
  ["CN([C@@H](Cc1ccc(OS(=O)(=O)c2cccc3cnccc23)cc1)C(=O)N1CCN(c2ccccc2)CC1)S(=O)(=O)c1cccc2cnccc12", "FALSE"],
  ["O=C1NC(=O)C(c2c[nH]c3ccccc23)=C1c1c[nH]c2ccccc12", "TRUE"],
  ["O=C(Nc1cccc(Nc2cc(Nc3cccc(C(F)(F)F)c3)ncn2)c1)C1CC1", "FALSE"],
  ["CC(=O)O/N=C1\\C(=C2\\C(=O)Nc3cc(Br)ccc32)Nc2ccccc21", "TRUE"],
  ["O=C1Nc2ccccc2/C1=C1/Nc2ccccc2/C1=N\\OCCC(O)CO (stereo not given)", "TRUE"],
  ["Nc1nnc2[nH]c3ccccc3nc1-2", "FALSE"],
  ["CC(C)c1nn(-c2c(Cl)cccc2Cl)c2nc(Cc3ccc(OCCO)cc3)nc(O)c12", "TRUE"]
]}

Task: Strictly below 90%: is that where residual activity of CC(C)[C@H](CO)Nc1nc(Nc2cc(N)cc(Cl)c2)c2ncn(C(C)C)c2n1 sits?
Result: TRUE
